Target: T1, cTnI quality control product recombinant protein (human, UniProt P19429 2-210, limits assumed)
T1 construct: treated as the same molecule; also called cTnI antigen; cardiac troponin I
T1 sequence (P19429 2-210 limits assumed): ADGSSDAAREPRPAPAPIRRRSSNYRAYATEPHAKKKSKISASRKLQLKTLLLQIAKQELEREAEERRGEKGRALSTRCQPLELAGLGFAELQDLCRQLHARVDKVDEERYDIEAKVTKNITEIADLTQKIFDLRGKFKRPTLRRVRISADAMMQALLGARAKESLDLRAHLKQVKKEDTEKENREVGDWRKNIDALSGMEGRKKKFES
Test: AMC sensor, antibody immobilised, cTnI in solution
Measured Property: Kd

Entry Mutation 1-54 (antibody, V domains shown, Built as m8) VH: EVQLQQSGPELVKPGASVKMSCKASGYTFTIYVVHWVKQKPGQGLEWIGYINPYLDGTKYNEKFKGKATLTVDKSSSTAFMELSSLTSEDSAVYYCARSGYGQYGLAWLAYWGQGTLVTVSA VL: QAVVIQESALTTSPGETVTLTCRSSTGAATTSNYANWVQEKPDHLFTGLIGGSNNRAPGVPARFSGSLIGDKAALTITGAQTEDEAIYFCALVYSNQWVFGGGTKLTVLG ; Kd = 7.78 nM

GET /value?item= Mutation 1-6 (antibody, V domains shown, Built as m8) VH: EVQLQQSGPELVKPGASVKMSCKASGYTFTIYVVHWVKQKPGQGLEWIGYIQPYLDGTKYNEKFKGKATLTVDKSSSTAFMELSSLTSEDSAVYYCARSGYGQYGLAWLAYWGQGTLVTVSA VL: QAVVIQESALTTSPGETVTLTCRSSTGAVTTSQYANWVQEKPDHLFTGLIGGSNNRAPGVPARFSGSLIGDKAALTITGAQTEDEAIYFCALVYSNNWVFGGGTKLTVLG &field=Kd returns 0.697 nM

API: the following record is the query input.
Notebook: WT 1-51 (antibody, V domains shown, Heavy chain built as m63) VH: EVQLQQSGPELVKPGASVKMSCKASGYSFTIYVVHWVKQKPGQGLEWIGYIQPYIDGTRYNEKFKGKATLTVDKSSSTAFMELSSLTSEDSAVYYCARTGYGQYGLAWLAYWGQGTLVTVSA VL: QAVVIQESALTTSPGETVTLTCRSSSGAATTSQYANWVQEKPDHLFTGLIGGSNNRAPGVPARFSGSLIGDKAALTITGAQTEDEAIYFCAIVYSNHWVFGGGTKLTVLG , Kd read as 35.4 nM
